residual activity overview
Assay target: PDPK1 (human) (UniProt O15530)
Sequence (O15530 whole entry, looked up): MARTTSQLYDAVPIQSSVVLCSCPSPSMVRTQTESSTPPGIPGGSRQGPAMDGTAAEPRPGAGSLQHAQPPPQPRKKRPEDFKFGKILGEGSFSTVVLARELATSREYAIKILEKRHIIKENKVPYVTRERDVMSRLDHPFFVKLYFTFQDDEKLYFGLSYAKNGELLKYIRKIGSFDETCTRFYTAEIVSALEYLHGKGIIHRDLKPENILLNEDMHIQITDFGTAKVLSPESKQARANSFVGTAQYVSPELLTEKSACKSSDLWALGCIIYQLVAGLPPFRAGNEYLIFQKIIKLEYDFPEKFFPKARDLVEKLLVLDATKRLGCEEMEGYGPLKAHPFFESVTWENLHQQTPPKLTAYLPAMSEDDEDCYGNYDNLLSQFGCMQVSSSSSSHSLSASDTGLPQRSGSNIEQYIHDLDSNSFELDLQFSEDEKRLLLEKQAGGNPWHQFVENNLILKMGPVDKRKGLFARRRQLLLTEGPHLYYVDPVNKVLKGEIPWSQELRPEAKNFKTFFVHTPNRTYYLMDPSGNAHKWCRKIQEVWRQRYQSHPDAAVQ
Method: radiometric filter-binding kinase assay
Conditions: compound 1.0 µM; ATP 50 µM
I only need the number, in %, no unit after it.

{"Molecule": "COc1ccc2c(c1)=NC1=C(C)NCCC=21", "residual activity [%]": 108}
{"Molecule": "COC[C@H]1OC(=O)c2coc3c2[C@@]1(C)C1=C(C3=O)[C@@H]2CCC(=O)[C@@]2(C)C[C@H]1OC(C)=O", "residual activity [%]": 92}
{"Molecule": "CC[C@@H](CO)Nc1nc(NCc2ccccc2)c2ncn(C(C)C)c2n1", "residual activity [%]": 90}
{"Molecule": "CO[C@H]1CC2CC[C@@H](C)[C@@](O)(O2)C(=O)C(=O)N2CCCC[C@H]2C(=O)OC([C@H](C)C[C@@H]2CC[C@@H](O)[C@H](OC)C2)CC(=O)[C@H](C)/C=C(\\C)[C@@H](O)[C@@H](OC)C(=O)[C@H](C)C[C@H](C)/C=C/C=C/C=C/1C (some centres not stated)", "residual activity [%]": 92}
{"Molecule": "O=C1c2ccccc2-c2n[nH]c3cccc1c23", "residual activity [%]": 26}
{"Molecule": "CC(C)(N)c1ccc(-c2nc3ccccc3nc2-c2ccccc2)cc1", "residual activity [%]": 76}

Next item in the queue.
Prompt: Please report the recorded residual activity for O=S(=O)(NCCNC/C=C/c1ccc(Br)cc1)c1cccc2cnccc12 .
Response: 56

----------
Listing: residual activity of selected molecules
Assay target: DYRK1A (human) (UniProt Q13627)
Method: radiometric filter-binding kinase assay
Conditions: compound 1.0 µM; ATP 50 µM

Please review the entries below; each comes with its answer.
{"Molecule": "COC[C@H]1OC(=O)c2coc3c2[C@@]1(C)C1=C(C3=O)[C@@H]2CCC(=O)[C@@]2(C)C[C@H]1OC(C)=O", "Assay target": "DYRK1A (human) (UniProt Q13627)", "Value observed": "88%"}
{"Molecule": "CO[C@H]1CC2CC[C@@H](C)[C@@](O)(O2)C(=O)C(=O)N2CCCC[C@H]2C(=O)OC([C@H](C)C[C@@H]2CC[C@@H](O)[C@H](OC)C2)CC(=O)[C@H](C)/C=C(\\C)[C@@H](O)[C@@H](OC)C(=O)[C@H](C)C[C@H](C)/C=C/C=C/C=C/1C (stereo not given in full)", "Assay target": "DYRK1A (human) (UniProt Q13627)", "Value observed": "91%"}

Prompt: State the recorded residual activity for this entry: COc1ccc2c(c1)=NC1=C(C)NCCC=21
Response: 29%

Prompt: And the next one, O=C1c2ccccc2-c2n[nH]c3cccc1c23 ?
Response: 40%

Prompt: Then this molecule: O=S(=O)(NCCNC/C=C/c1ccc(Br)cc1)c1cccc2cnccc12
Response: 96%

----------
Assay target: UniProt:P49841
Sequence (P49841 whole entry, looked up): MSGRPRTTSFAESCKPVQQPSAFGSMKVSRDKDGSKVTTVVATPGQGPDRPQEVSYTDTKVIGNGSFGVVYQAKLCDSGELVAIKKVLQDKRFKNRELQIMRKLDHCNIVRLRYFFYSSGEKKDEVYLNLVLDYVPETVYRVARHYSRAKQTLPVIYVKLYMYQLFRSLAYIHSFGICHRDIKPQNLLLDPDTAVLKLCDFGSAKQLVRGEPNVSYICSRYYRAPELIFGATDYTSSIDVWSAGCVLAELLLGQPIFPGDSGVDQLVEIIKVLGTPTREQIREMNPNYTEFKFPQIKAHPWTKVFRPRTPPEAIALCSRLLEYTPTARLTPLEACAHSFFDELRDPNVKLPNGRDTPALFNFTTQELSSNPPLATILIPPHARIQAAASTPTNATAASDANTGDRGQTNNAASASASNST
Method: radiometric filter-binding kinase assay
Conditions: compound 1.0 µM; ATP 5 µM
Measurement type: residual activity (%)
Answer with a number only, understood to be in %.

Some entries whose results are on file:
{"Molecule": "COc1ccc2c(c1)=NC1=C(C)NCCC=21", "Measure unit": "%", "residual activity": 100}
{"Molecule": "O=C1c2ccccc2-c2n[nH]c3cccc1c23", "Measure unit": "%", "residual activity": 81}

Prompt: Look up residual activity: COC[C@H]1OC(=O)c2coc3c2[C@@]1(C)C1=C(C3=O)[C@@H]2CCC(=O)[C@@]2(C)C[C@H]1OC(C)=O
Response: 65

Prompt: Next up: CC(C)(N)c1ccc(-c2nc3ccccc3nc2-c2ccccc2)cc1
Response: 89

Prompt: For CO[C@H]1CC2CC[C@@H](C)[C@@](O)(O2)C(=O)C(=O)N2CCCC[C@H]2C(=O)OC([C@H](C)C[C@@H]2CC[C@@H](O)[C@H](OC)C2)CC(=O)[C@H](C)/C=C(\C)[C@@H](O)[C@@H](OC)C(=O)[C@H](C)C[C@H](C)/C=C/C=C/C=C/1C (stereo partly specified) then?
Response: 83

Prompt: Request: O=S(=O)(NCCNC/C=C/c1ccc(Br)cc1)c1cccc2cnccc12
Response: 88
